- Test system: HT29 colon
- METHOD: NCI-60 one-dose screen, 48 h (100 = growth as untreated, 0 = no growth, -100 = all killed)
- EXPERIMENTAL_SETUP: 10 µM unless noted
About 83,000 compounds went through this panel and 20% of them were active in at least one assay; those are over-represented in the sample as a whole.
// 0 strictly below 10% in growth; 1 otherwise

1) O=C(c1ccc(O)cc1)C1[C@H](c2ccc(Cl)cc2)[C@@H](c2ccccc2)NC12C(=O)Nc1ccc(Br)cc12 (stereo partly drawn) : 0
2) Cc1ccc(C2CC(c3ccc(NC(=O)Nc4ccccc4)cc3)=NN2c2ccc(S(C)(=O)=O)cc2)cc1 (stereo not drawn) : 0
3) Fc1ccc(F)c(CNc2nc(SCCN3CCOCC3)nc3c2cnn3CC(Cl)c2ccc(Br)cc2)c1 (stereo not drawn) : 0
4) CN(C)c1nc(NCCNS(=O)(=O)c2ccc(C3=Nc4c(N)nc(N)nc4NC(c4ccc(C(F)(F)F)cc4)C3)cc2)nc(N2CCOCC2)n1 (stereo not drawn) : 0
5) COc1ccc(C(=O)NNC(=O)CSc2nc3sc4c(c3c(=O)n2-c2ccc(Cl)cc2)CCCC4)cc1 : 1
6) COc1cc(C2CC(c3ccc(F)cc3)=Nc3c(N)nc(N)nc3N2)ccc1Oc1nc(Nc2ccc(F)cc2)nc(N(C)C)n1 (stereo not drawn) : 1
7) Cn1ncc2c(N)nc(Oc3ccccc3-c3ccccc3)nc21 : 1

* * *

- Test system: SK-MEL-2 melanoma
- METHOD: NCI-60 one-dose screen, 48 h
- EXPERIMENTAL_SETUP: 10 µM unless noted
Compounds without any hit were thinned out: in the full panel of roughly 83,000, 20% have a hit. Calls of active or inactive are those of the source. Rule for the calls: active = growth percent below 10; inactive = the rest.
Labels: active, inactive

1) Cn1cc(Nc2ncnc(-c3ccc(N4CCCC4)c(C#N)c3)n2)cn1 : inactive
2) COc1cc(/C=C/C(=O)c2cnn(-c3cc(=O)[nH]c4ccc(Br)cc34)c2C)cc(OC)c1OC : active
3) COc1nc(N)ncc1-c1ccc2ncnc(N3CCc4cc(F)c(Cl)cc43)c2c1 : inactive
4) COc1ccc(/C=C/C(=O)c2ccc(OC)c(S(N)(=O)=O)c2)c(C(F)(F)F)c1 : inactive
5) CN(C)c1ccc(/C=C/c2n(Cc3ccc4ccccc4c3)c3ccccc3[n+]2Cc2ccc3ccccc3c2)cc1 : active
6) CC1CCc2c(sc3nc(SCC(=O)c4cccc([N+](=O)[O-])c4)n(-c4ccccc4)c(=O)c23)C1 (centres undefined) : inactive
7) CC(Nc1ncnc2ccc(-c3ccc4oc(N)nc4c3)cc12)c1ccccc1 (centres undefined) : inactive
8) CC(=O)C[n+]1cccc2c3ccccc3ccc21 : inactive
9) O=C(N/N=C/c1ccoc1)c1[nH]c2ccc(Br)cc2c1-c1ccccc1 : active
10) CN1CCN(C(=O)Oc2cc3c(c4ccccc24)[C@H](CCl)CN3C(=O)c2cc3cc(OCCCN4CCC4)ccc3[nH]2)[C@H]2CSSC[C@H]21 : active
11) C=CC(=O)Nc1ccc(C(=O)/C=C/c2ccc(N(C)C)cc2)c(O)c1 : active
12) O=C(CSc1nc2sc3c(c2c(=O)n1-c1ccc(Cl)cc1)CCCC3)NNC(=O)c1ccc(Br)cc1 : inactive
13) O=C1CCC(N2C(=O)c3cccc(NCCCCCC(=O)N4CCN(c5ccc6nc7c(nc6c5C(F)(F)F)C(=O)c5ncccc5C7=O)CC4)c3C2=O)C(=O)N1 (centres undefined) : active
14) O=c1[nH]c2ccccc2cc1COc1ccc(Nc2nccc(-c3ccc(Cl)cc3)n2)cc1 : inactive
15) CC1CCc2c(sc3nc(SCC(=O)c4cccc(Br)c4)n(-c4ccccc4)c(=O)c23)C1 (centres undefined) : inactive
16) Cc1ccc(Cl)cc1NC(=O)Nc1nc2ccc([N+](=O)[O-])cc2s1 : active
17) COc1cccc(C(N)=Nc2ccc(OCCCCCCCCn3cncn3)cc2)c1 : inactive
18) CCN1C(=O)N(CC)C2NNC(Sc3c(C(=O)O)c4ccccc4n(CC(C)C)c3=O)=NC21 (centres undefined) : inactive
19) O=C(Nc1ccc(Cl)c(C(F)(F)F)c1)N1CCN(c2cc(-c3cn(-c4ccccc4)nc3-c3cccc(O)c3)ccn2)CC1 : active

Hey, just so you know, these numbers are from PubChem BioAssay (NCI).
